assay.notes: Plasma protein binding in human
Format: ADME, cell-free
reported.conditions: read-out: PPB (converted)
readout.type: fraction unbound
Form rule: numeric answer, no unit written next to it.

Provide one value: measured fraction unbound of CCn1c(CNC(=O)c2nc3cc[nH]c3nc2N)[n+](CC)c2ccc(C(=O)N3CCC(N(C[C@H](O)[C@@H](O)[C@H](O)[C@H](O)CO)C[C@H](O)[C@@H](O)[C@H](O)[C@H](O)CO)CC3)cc21.O=C(O)C(F)(F)F.O=C([O-])C(F)(F)F
0.9

====

assay.notes: Lipophilicity, log D of the compound
Assay type: physicochemical
reported.conditions: octanol/water
readout.type: logD
A bare number is all that is needed in reply.

CCn1c(CNC(=O)c2nc3cc[nH]c3nc2N)[n+](CC)c2ccc(C(=O)N3CCC(N)CC3)cc21.Cl.[I-] ... 0.6
CCn1c(CNC(=O)c2nc(Br)cnc2N)[n+](C)c2ccc(OC)cc21.[I-] ... 0.8
CCn1c(CNC(=O)c2nc3cc[nH]c3nc2N)[n+](CC)c2ccc(OCCCN)cc21 ... 1.5
CCc1cnc(N)c(C(=O)NCc2n(CC)c3cc(OC)ccc3[n+]2C)n1 ... 0.9

Proceed to the following item.
Supply reported logD belonging to this molecule: CCn1c(CNC(=O)c2nc3cc[nH]c3nc2N)[n+](CC)c2ccc(OC)cc21
0.9

This collection of values is drawn from ChEMBL document CHEMBL6120981.
